Reference source for all entries: ChEMBL document CHEMBL3988442

Kindly supply the reported Percent Effect values for the records listed here.
Tested on: Wolbachia pipientis
Assay: Anti-Wolbachia Cell-Based Screen
Format: functional
Design: scale not given: in the data most compounds retested in dose-response had high values
Conditions: 5 µM
Out of some 48,000 compounds screened, about 13,000 (27%) showed an effect of 50% or more. Some of the results follow.
Answers are plain numbers, in %.

// solved cases for Percent Effect follow
CC(C)(C)c1cc(C[C@H]2CNCC[C@H]2CC(=O)N2CCCCC2)no1 ... 3.52
COc1ccccc1C(=O)NC(C)CC(=O)O (configuration not stated) ... 5.398
CC1CCN(C(=O)[C@@H]2C[C@@H]3CCN(CC4CCOCC4)C[C@@H]3O2)CC1.O=C(O)C(F)(F)F ... -4.888
COCCCNC(=O)c1c(C)noc1C(C)C ... 99.64
CCOc1ccccc1CC(=O)N1C[C@@H](C(=O)O)[C@H](C2CC2)C1 ... 111.1
Cc1nc(C)c(CC(=O)N2C[C@@H](C(=O)O)[C@H](c3ccncc3)C2)s1 ... -15.05

For each entry beneath this line, provide reported Percent Effect.
1. COc1cccc(OCc2nnc3n2N=C(C(C)(C)C)CS3)c1
2. CCc1nc(CN(C)Cc2ncc(-c3cccs3)o2)cs1
3. O=C(O)[C@@H]1CN(Cc2cc3c(cc2Cl)OCO3)C[C@H]1C1CC1

a:
1: -3.476; 2: -9.321; 3: -1.718
